Reference source: the supplement of paper PMC11616607

Tested on: COV362
Experiment: drug sensitivity score (DSS) from 5-point dose-response viability curve (DSS (area-under-curve based score)); higher = more sensitive (stronger growth inhibition or killing); extreme values may be limits of the assay
Conditions: exposure time: 72 h; concentration range: 5 concentrations over 10,000-fold range
Recorded Metric: drug sensitivity score

Some entries whose results are on file:
structure=CS(=O)(=O)N1CCN(Cc2cc3nc(-c4cccc5[nH]ncc45)nc(N4CCOCC4)c3s2)CC1 recorded_metric="drug sensitivity score" experimental_result=5.9
structure=COc1cc(OC2CCN(C)CC2)ccc1Nc1ncc2c(n1)n(C1CCCC1)c(=O)n2C recorded_metric="drug sensitivity score" experimental_result=0.8
structure=CC(=O)c1cnc2ccc(-c3cc(Cl)c(O)c(Cl)c3)nc2c1N[C@H]1CC[C@H](CN(C)C)CC1 recorded_metric="drug sensitivity score" experimental_result=5.4

# input Form field: reported drug sensitivity score of C[C@@H]1CN(CC(=O)Nc2ccc3c(c2)Cc2cccc(-c4cc(=O)cc(N5CCOCC5)o4)c2S3)C[C@H](C)O1
# output 1.2

----------
Test system: HOSE2C
Assay: drug sensitivity score (DSS) from 5-point dose-response viability curve (DSS (area-under-curve based score)); higher = more sensitive (stronger growth inhibition or killing); extreme values may be limits of the assay
Details: exposure time: 72 h; concentration range: 5 concentrations over 10,000-fold range
Examples of molecules with documented drug sensitivity score follow.
Note: the reply should be a number with no unit written.

The following molecules have reported results that may help.
molecule="O=C(CCNC(=O)c1ccc(OC(F)(F)F)cc1)N[C@@H]1CCCc2ccccc21 [ML390]" measured_on=HOSE2C recorded_metric="drug sensitivity score" experimental_result=13.4
molecule="CCCCNc1ncc(C(=O)NCc2ccc(-n3ccnc3)cc2)c(NC2CCC(O)CC2)n1 (centres undefined) [UNC2881]" measured_on=HOSE2C recorded_metric="drug sensitivity score" experimental_result=0.5
molecule=Cc1c(-c2c(-c3ccc(F)o3)sc3ncnc(O[C@H](Cc4ccccc4OCc4ccnn4CC(F)(F)F)C(=O)O)c23)ccc(OCCN2CCN(C)CC2)c1Cl measured_on=HOSE2C recorded_metric="drug sensitivity score" experimental_result=0

Attention now shifts to the item below.
# input Which drug sensitivity score value is on record for Cc1cc(Nc2nc(N[C@@H](C)c3ncc(F)cn3)ncc2Cl)[nH]n1 [AZD1480] ?
# output 2.8

----------
System: OVCAR5
Assay: drug sensitivity score (DSS) from 5-point dose-response viability curve (DSS (area-under-curve based score)); higher = more sensitive (stronger growth inhibition or killing); extreme values may be limits of the assay
Details: exposure time: 72 h; concentration range: 5 concentrations over 10,000-fold range
Outcome: rule met for drug sensitivity score of at least 2; rule not met for anything lower.

molecule=CN1CCN(c2ccc(C(=O)Nc3n[nH]c4ccc(Cc5cc(F)cc(F)c5)cc34)c(NC3CCOCC3)c2)CC1 label_class="rule not met"
molecule=CNC(=O)[C@@H](NC(=O)[C@H](CC(C)C)[C@H](O)C(=O)NO)C(C)(C)C label_class="rule not met"
molecule=CC[C@@H]1C(=O)N(C)c2cnc(Nc3ccc(C(=O)NC4CCN(C)CC4)cc3OC)nc2N1C1CCCC1 label_class="rule met"
molecule=Cc1cc(Nc2cc(N3CCN(C)CC3)nc(Sc3ccc(NC(=O)C4CC4)cc3)n2)n[nH]1 label_class="rule met"
molecule=Cc1nc(=O)c2cc(CN(C)c3ccc(C(=O)N[C@@H](CCC(=O)O)C(=O)O)s3)ccc2[nH]1 label_class="rule met"
molecule=NS(=O)(=O)OC[C@@H]1C[C@@H](n2ccc3c(N[C@H]4CCc5ccccc54)ncnc32)C[C@@H]1O label_class="rule met"
molecule="CNC(=O)c1ccc(N2C(=S)N(c3cnc(C#N)c(C(F)(F)F)c3)C(=O)C23CCC3)cc1F [Apalutamide]" label_class="rule not met"
molecule=CCNC(=O)c1noc(-c2cc(C(C)C)c(O)cc2O)c1-c1ccc(CN2CCOCC2)cc1 label_class="rule met"
molecule=CC(C)c1cc(C(=O)N2Cc3ccc(CN4CCN(C)CC4)cc3C2)c(O)cc1O label_class="rule met"
molecule=NC(=O)c1cccc(-c2cccc(OC(=O)NC3CCCCC3)c2)c1 label_class="rule not met"

# input Threshold query (drug sensitivity score >= 2) on Nc1ncnc2c1nc(N)n2[C@@H]1O[C@H](CO)[C@@H](O)[C@H]1O
# output rule met

# input // query: O=S(=O)(c1cccc2c(O)nccc12)N1CCCNCC1 [Hydroxyfasudil]
# output rule not met

# input Input CCCCc1nc2cc(/C=C/C(=O)NO)ccc2n1CCN(CC)CC
# output rule met

# input Repeat for the following molecule: CCNc1nc(Nc2cc(F)c(C(=O)N3CCOCC3)cc2OC)ncc1C(F)(F)F
# output rule not met

# input // next record COc1cc2c(cc1OC(C)C)[C@H](c1ccc(Cl)cc1)N(c1ccc(N(C)C[C@H]3CC[C@H](N4CCN(C)C(=O)C4)CC3)cc1)C(=O)C2
# output rule met

# input Now this one: C[C@]12CC[C@H](O)CC1=CC[C@@H]1[C@@H]2CC[C@]2(C)C(c3cccnc3)=CC[C@@H]12
# output rule not met

# input Entry to check: C[C@@H](Oc1cc(-n2cnc3ccc(CN4CCN(C)CC4)cc32)sc1C(N)=O)c1ccccc1C(F)(F)F
# output rule met

# input Same thing, different molecule: CC(C)N(CCCNC(=O)Nc1ccc(C(C)(C)C)cc1)C[C@H]1O[C@@H](n2cc(Br)c3c(N)ncnc32)[C@H](O)[C@@H]1O
# output rule not met

# input Entry to check: NS(=O)(=O)NCCNc1nonc1/C(=N/O)Nc1ccc(F)c(Br)c1
# output rule not met

# input Let us now turn to FC(F)c1nc2ccccc2n1-c1nc(N2CCOCC2)nc(N2CCOCC2)n1
# output rule met

# input Also need N#Cc1ccc(C(c2ccc(C#N)cc2)n2cncn2)cc1 , thanks.
# output rule not met

# input Now the molecule COc1ccc(Cn2ccc3ccc(C(=O)NO)cc32)cc1
# output rule not met

# input Consider next the molecule Cn1c(=O)n(-c2ccc(C(C)(C)C#N)cc2)c2c3cc(-c4cnc5ccccc5c4)ccc3ncc21 in the same way.
# output rule met

# input // query: O=C(Nc1cc(Oc2cc(F)c(NC(=O)C3(C(=O)Nc4ccc(F)cc4)CC3)cc2F)ccn1)C1CC1
# output rule met

# input Now try Cc1cc(C(C)Nc2ccccc2)c2nc(N3CCOCC3)cc(=O)n2c1 (configuration not stated) .
# output rule met

# input Check CN1CCN(c2cc(C(=O)Nc3ccc4c(c3)-c3c(c(C(N)=O)nn3-c3ccc(F)cc3)CC4)c(Cl)cn2)CC1 too.
# output rule not met

# input Proceed to CC[C@@H]1[C@H](F)C(=O)N[C@@H]1COc1nccc2cc(C(N)=O)c(OC)cc12
# output rule not met

# input Continue with C[C@@H](Nc1cc(F)cc(F)c1)c1cc(C(=O)N(C)C)cc2c(=O)cc(N3CCOCC3)oc12
# output rule not met

# input Follow-up item: Cn1cnc2c(F)c(Nc3ccc(Br)cc3Cl)c(C(=O)NOCCO)cc21
# output rule met

# input Item: CN[C@@H]1C[C@H]2O[C@@](C)([C@@H]1OC)n1c3ccccc3c3c4c(c5c6ccccc6n2c5c31)C(=O)N[C@H]4O
# output rule met

# input Next: CCn1c(-c2nonc2N)nc2cnc(Oc3cccc(NC(=O)c4ccc(OCCN5CCOCC5)cc4)c3)cc21
# output rule met

# input Also check COc1cc2nccc(Oc3ccc(NC(=O)NC4CC4)c(Cl)c3)c2cc1C(N)=O
# output rule not met
